IC50 values by entry
# Test system: A375 cells
# assay_remarks: Tumor cell line proliferation assay (CellTiter Glo), A375
# Type: cell-based
# condition_info: Homo sapiens, A-375, 96 h, read-out: A375 (V599E) Cell Proliferation IC50

Below, 4 compounds whose answers are already recorded.
                                   compound  quantity_name         reading
0  Cc1cc(-c2n[nH]c3cc4c(cc23)CN(Cc2nc(C)c(C)s2)C(=O)N4)ccn1           IC50  250 to 1000 nM
1  Cc1cc(-c2n[nH]c3cc4[nH]c(=O)c(C(O)c5ccccc5)cc4cc23)ccn1 (stereo not shown)           IC50  250 to 1000 nM
2  Cc1cc(-c2n[nH]c3cc4c(cc23)CN([C@H]2CCN(Cc3ccccc3)C2)C(=O)N4)ccn1           IC50  250 to 1000 nM
3  Cc1cc(-c2n[nH]c3cc4c(cc23)CN(CCc2ccc(F)cc2)C(=O)N4)ccn1           IC50  250 to 1000 nM

Prompt: State the recorded IC50 for this entry: Cc1cc(-c2n[nH]c3cc4c(cc23)CN([C@@H]2CN(CC(F)(F)F)C[C@H]2c2cccs2)C(=O)N4)ccn1 (mixture of isomers)
Completion: 250 to 1000 nM

Prompt: State the recorded IC50 for this entry: `Cc1cc(-c2n[nH]c3cc4[nH]c(=O)c([C@H](C)c5ccccc5)cc4cc23)ccn1`
Completion: ≤ 250 nM

Prompt: State the recorded IC50 for this entry: `Cc1cc(-c2n[nH]c3cc4c(cc23)CN([C@@H]2CCN(CCc3ccccc3)C2)C(=O)N4)ccn1`
Completion: ≤ 250 nM

----------
# Tested on: phospho-p90 RSK (RSK1 Thr359/Ser363) in A375 (Braf V600E) cells
# assay_remarks: Phospho-p90 RSK ELISA using A375 (Braf V600E) cells
# Assay type: cell-based
# condition_info: Homo sapiens, A-375, 2 hours compound treatment, read-out: Cellular Phospho-p90RSK IC50
pIC50: −log10 of the molar value.
quantity_name: pIC50

>>> print(df.to_string())
                                   compound       reading
0  Cc1cc(-c2n[nH]c3cc4c(cc23)CN([C@@H]2CCCN(CCC(C)C)C2)C(=O)N4)ccn1  6.00 to 6.60
1  COc1ncc(-c2n[nH]c3cc4c(cc23)CN(C2CN(Cc3ccccc3)CC(F)(F)C2)C(=O)N4)cn1 (stereo not shown)        ≥ 6.60
2  Cc1cc(-c2n[nH]c3cc4c(cc23)CN(Cc2ccc(C(F)(F)F)cc2)C(=O)N4)ccn1        ≥ 6.60
3  Cc1cc(-c2n[nH]c3cc4c(cc23)CN([C@@H]2CCCN(c3cccc(Cl)c3)C2)C(=O)N4)ccn1        ≥ 6.60
4  Cc1cc(-c2n[nH]c3cc4c(cc23)CN(Cc2cc(F)cc(F)c2)C(=O)N4)cc(C)n1        ≥ 6.60

Prompt: Lab note: need pIC50 with phospho-p90 RSK (RSK1 Thr359/Ser363) in A375 (Braf V600E) cells for entry `COc1ccc(-c2n[nH]c3cc4c(cc23)CN(Cc2ccc(F)c(Cl)c2)C(=O)N4)cn1` , please look it up.
Completion: 6.00 to 6.60

Prompt: Lab note: need pIC50 with phospho-p90 RSK (RSK1 Thr359/Ser363) in A375 (Braf V600E) cells for entry `Cc1cc(-c2n[nH]c3cc4c(cc23)CN(Cc2cccc(C(F)(F)F)c2)C(=O)N4)ccn1` , please look it up.
Completion: ≥ 6.60

Prompt: Lab note: need pIC50 with phospho-p90 RSK (RSK1 Thr359/Ser363) in A375 (Braf V600E) cells for entry `Cc1cc(-c2n[nH]c3cc4c(cc23)CN([C@@H]2CCN(Cc3c(F)cccc3F)C2)C(=O)N4)ccn1` , please look it up.
Completion: ≥ 6.60

Prompt: Lab note: need pIC50 with phospho-p90 RSK (RSK1 Thr359/Ser363) in A375 (Braf V600E) cells for entry `O=C1Nc2cc3[nH]nc(-c4ccnnc4)c3cc2CN1CCc1ccc(F)cc1` , please look it up.
Completion: 6.00 to 6.60

Prompt: Lab note: need pIC50 with phospho-p90 RSK (RSK1 Thr359/Ser363) in A375 (Braf V600E) cells for entry `COc1ccc(-c2n[nH]c3cc4c(cc23)CN([C@@H]2CCCN(Cc3ccccc3)C2)C(=O)N4)cn1` , please look it up.
Completion: ≥ 6.60

Prompt: Lab note: need pIC50 with phospho-p90 RSK (RSK1 Thr359/Ser363) in A375 (Braf V600E) cells for entry `Cc1cc(-c2n[nH]c3cc4c(cc23)CN(CC2CCCCC2)C(=O)N4)ccn1` , please look it up.
Completion: ≥ 6.60

Prompt: Lab note: need pIC50 with phospho-p90 RSK (RSK1 Thr359/Ser363) in A375 (Braf V600E) cells for entry `Cc1cc(-c2n[nH]c3cc4c(cc23)CN([C@H](C)CO)C(=O)N4)ccn1` , please look it up.
Completion: < 6.00

Prompt: Lab note: need pIC50 with phospho-p90 RSK (RSK1 Thr359/Ser363) in A375 (Braf V600E) cells for entry `Cc1cc(-c2n[nH]c3cc4c(cc23)CN([C@@H]2CCCN(CC3(C)CC3)C2)C(=O)N4)ccn1` , please look it up.
Completion: 6.00 to 6.60
